Biological target: T1, cynomolgus monkey IL-17A (cynomolgus monkey, UniProt A0A2K5TTB0 24-155)
T1 construct: biotinylated in the ELISA; also called cyno IL-17; Cyno IL-17A
T1 sequence (A0A2K5TTB0 entry or part of it): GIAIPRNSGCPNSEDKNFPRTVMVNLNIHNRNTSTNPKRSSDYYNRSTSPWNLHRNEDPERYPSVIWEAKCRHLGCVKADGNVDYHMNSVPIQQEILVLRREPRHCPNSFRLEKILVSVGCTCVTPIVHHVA
Experiment: SPR (Biacore 3000), antibody captured by anti-Fc, antigen in solution;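 note: purified recombinant IL-17 antigens flowed over captured antibodies in HBS-EP buffer, global Langmuir one-to-one fit of association and dissociation phases, KD derived from koff over kon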
MEASURE_NAME: koff (s⁻¹)
Answer format: numeric, s⁻¹ implied, no suffix.

Prompt line: Which koff value is on record for IL17-h10F7.11 (antibody, V domains shown, IgG; constant regions not specified; also called h10F7.11 (VH.1a-Vk.2a)) VH: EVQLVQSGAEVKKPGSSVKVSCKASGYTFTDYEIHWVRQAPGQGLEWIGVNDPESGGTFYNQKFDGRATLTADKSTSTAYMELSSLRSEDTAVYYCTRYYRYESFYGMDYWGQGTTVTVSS VL: EIVLTQSPDFQSVTPKEKVTITCSASSSISYIYWFQQKPDQSPKRWIYATFELASGVPSRFSGSGSGTDYTLTINSLEAEDAATYYCHQRSSYPWTFGQGTKLEIKR ?
Response line: 0.000351

Prompt line: Which koff value is on record for IL17-h5C5.18 (antibody, V domains shown, IgG; constant regions not specified; also called h5C5.18 (VH.1b-Vk.1c)) VH: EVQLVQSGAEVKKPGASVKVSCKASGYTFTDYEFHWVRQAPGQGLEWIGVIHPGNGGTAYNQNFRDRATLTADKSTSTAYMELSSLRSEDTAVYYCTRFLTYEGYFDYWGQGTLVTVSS VL: NIVMTQSPSSLSASVGDRVTITCKASQSVSIDVGWFQQKPGKSPKLLIYHASNRYTGVPSRFSGSGSGTDFTFTISSLQPEDFATYFCQQDYSSPYTFGQGTKLEIKR ?
Response line: 0.000254

Prompt line: Which koff value is on record for IL17-h5C5.8 (antibody, V domains shown, IgG; constant regions not specified; also called h5C5.8 (VH.1-Vk.1a)) VH: EVQLVQSGAEVKKPGASVKVSCKASGYTFTDYEFHWVRQAPGQGLEWMGVIHPGNGGTAYNQNFRDRVTITADKSTSTAYMELSSLRSEDTAVYYCARFLTYEGYFDYWGQGTLVTVSS VL: DIQMTQSPSSLSASVGDRVTITCKASQSVSIDVGWFQQKPGKSPKLLIYHASNRYTGVPSRFSGSGSGTDFTFTISSLQPEDFATYFCQQDYSSPYTFGQGTKLEIKR ?
Response line: 0.000226

Prompt line: Which koff value is on record for IL17-h5C5.9 (antibody, V domains shown, IgG; constant regions not specified; also called h5C5.9 (VH.1b-Vk.1a)) VH: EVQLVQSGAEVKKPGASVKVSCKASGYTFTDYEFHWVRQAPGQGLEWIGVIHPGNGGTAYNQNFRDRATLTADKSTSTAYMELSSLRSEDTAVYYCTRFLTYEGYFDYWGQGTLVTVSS VL: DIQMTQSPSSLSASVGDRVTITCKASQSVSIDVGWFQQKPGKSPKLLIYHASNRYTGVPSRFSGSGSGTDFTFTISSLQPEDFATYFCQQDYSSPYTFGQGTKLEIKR ?
Response line: 0.000239

Prompt line: Which koff value is on record for IL17-h5C5.15 (antibody, V domains shown, IgG; constant regions not specified; also called h5C5.15 (VH.1b-Vk.3a)) VH: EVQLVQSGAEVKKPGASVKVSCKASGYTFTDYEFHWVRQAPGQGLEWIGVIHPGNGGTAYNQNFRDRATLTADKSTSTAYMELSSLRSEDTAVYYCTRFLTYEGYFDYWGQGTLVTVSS VL: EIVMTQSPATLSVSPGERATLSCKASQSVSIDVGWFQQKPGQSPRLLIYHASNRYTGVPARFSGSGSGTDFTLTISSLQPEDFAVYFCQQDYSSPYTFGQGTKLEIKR ?
Response line: 0.000216

Prompt line: Which koff value is on record for IL17-h5C5.21 (antibody, V domains shown, IgG; constant regions not specified; also called h5C5.21 (VH.1b-Vk.3c)) VH: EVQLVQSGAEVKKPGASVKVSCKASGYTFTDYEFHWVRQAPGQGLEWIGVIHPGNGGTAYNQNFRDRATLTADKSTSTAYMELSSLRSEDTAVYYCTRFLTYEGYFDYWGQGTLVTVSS VL: NIVMTQSPATLSVSPGERATLSCKASQSVSIDVGWFQQKPGQSPRLLIYHASNRYTGVPARFSGSGSGTDFTLTISSLQPEDFAVYFCQQDYSSPYTFGQGTKLEIKR ?
Response line: 0.00024
